Listing of recorded PBM binding z-score by entry.
system: RARb:RXRa (NR concentration 270 nM, RXRa partner concentration 90 nM); assay: PBM binding z-score (relative to random genomic background probes); higher = stronger binding; sequences stand for … in GC…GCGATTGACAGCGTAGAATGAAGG
The response must contain the number and no unit.

// solved cases for PBM binding z-score follow
>  <sequence content>
ACTAGTTGGTCAGCTGAGGTCAAACACAATTCGG

>  <PBM binding z-score>
3.62

$$$$
>  <sequence content>
AAAATGAGGTTATTAAGATCAGGGAATTGCGGTC

>  <PBM binding z-score>
1.51

$$$$
>  <sequence content>
CAAACTAGGTCAGAACAGGACAGTGAAGGATGAT

>  <PBM binding z-score>
3.24

$$$$
>  <sequence content>
TCAGACAGGTGAAGGTACCTCAGGTACGCAGTCG

>  <PBM binding z-score>
0.914

$$$$
>  <sequence content>
ATATGTAGGTTATCGGGTTATTCAGTTTGCGCAT

>  <PBM binding z-score>
1.11

$$$$

State the recorded PBM binding z-score for this entry: "CCGACTGGGGCATAAAGTTACCATAAGCCAGCCC"
0.149

Now consider "GGAACAAGGGCAAGTTGATAGCAGAGTTTGATGG" .
2.71

// same read-out, input: "TCGCGTAGGTTAGGGGCATTCAGAATGGCGTCGA"
1.18

---

system: RARb homodimer (NR concentration 270 nM); assay: PBM binding z-score (relative to random genomic background probes); higher = stronger binding; sequences stand for … in GC…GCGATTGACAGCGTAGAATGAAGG
# cutoff 2 applies to PBM binding z-score; >= gives Satisfied, < gives Not satisfied

Check out these entries, answers already filled in.
>  <sequence content>
TCATATAGGTAAAGGTGAAAGGCGAACGATATGA

>  <system tested>
RARb homodimer (NR concentration 270 nM)

>  <group label>
Not satisfied

$$$$
>  <sequence content>
CGTCCAAGGTCATAGAAGGTCAGTGAAGACAGAT

>  <system tested>
RARb homodimer (NR concentration 270 nM)

>  <group label>
Satisfied

$$$$
>  <sequence content>
TTACCAAGGTGAAGGTCGGTGATCCCTCTGTAGA

>  <system tested>
RARb homodimer (NR concentration 270 nM)

>  <group label>
Not satisfied

$$$$
>  <sequence content>
ATGTCTAGGTAAAGATAGTTCAGTGAATGCAAAT

>  <system tested>
RARb homodimer (NR concentration 270 nM)

>  <group label>
Not satisfied

$$$$
>  <sequence content>
AAATGTAGGTTAGCTGGGGTCATTCAGACTAGGC

>  <system tested>
RARb homodimer (NR concentration 270 nM)

>  <group label>
Satisfied

$$$$

Reported PBM binding z-score at or above 2? "CCTACTGGGCTAAAAAGGTCATTGATGCCGATAA"
Satisfied

Request: "TCTGCTAGGTCAACGATGATCAGCTAATCTGCTA"
Satisfied

// repeat for "TCATATAGGTAAAAGGTGAATGTCGGTGTGGTAA" and report
Not satisfied

# iterate: "CTCGAAAGGTCGGTTGATGTGAGTATACGGATAA"
Not satisfied

How about this sequence: "CCTGCTAGGTCATGGTCAGTTAATCTACAGTATG"
Satisfied
